// data source = paper PMC10709440

- assayed system: Drosophila OR10a (Drosophila melanogaster)
- Construct: expressed in transfected cells
- Sequence (Q9VYZ1 1-406): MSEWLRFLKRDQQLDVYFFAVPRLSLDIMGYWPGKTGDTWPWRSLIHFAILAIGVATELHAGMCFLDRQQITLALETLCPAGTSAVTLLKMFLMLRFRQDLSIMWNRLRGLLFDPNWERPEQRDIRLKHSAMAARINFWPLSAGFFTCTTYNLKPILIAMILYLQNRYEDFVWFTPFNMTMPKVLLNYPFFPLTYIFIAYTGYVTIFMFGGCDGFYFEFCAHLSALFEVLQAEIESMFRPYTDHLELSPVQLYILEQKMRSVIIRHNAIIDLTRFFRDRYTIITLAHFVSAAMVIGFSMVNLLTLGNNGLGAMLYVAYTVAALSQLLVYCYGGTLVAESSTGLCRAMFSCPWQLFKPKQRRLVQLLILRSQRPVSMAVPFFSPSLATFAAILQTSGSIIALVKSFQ
- Sequence (Q9VNB5 1-486 partner): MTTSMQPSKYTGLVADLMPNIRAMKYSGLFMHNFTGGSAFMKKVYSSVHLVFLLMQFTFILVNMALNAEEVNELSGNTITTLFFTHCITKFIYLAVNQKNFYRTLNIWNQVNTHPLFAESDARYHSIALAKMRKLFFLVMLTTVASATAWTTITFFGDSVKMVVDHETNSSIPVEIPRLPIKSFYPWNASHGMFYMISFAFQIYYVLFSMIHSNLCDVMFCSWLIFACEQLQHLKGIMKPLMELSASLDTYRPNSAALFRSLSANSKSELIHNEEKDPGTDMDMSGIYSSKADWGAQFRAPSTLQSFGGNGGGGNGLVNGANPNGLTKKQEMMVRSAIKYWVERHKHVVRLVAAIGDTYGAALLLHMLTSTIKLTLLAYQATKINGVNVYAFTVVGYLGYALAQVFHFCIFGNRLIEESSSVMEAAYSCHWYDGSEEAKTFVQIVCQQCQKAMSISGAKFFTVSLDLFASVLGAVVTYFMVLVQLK
- procedure text: Calcium ion fluorescence (GCaMP6) assay, OR10a stable HEK293 cell line
- Format: cell-based
- assay context: ligand concentration 100 (unit not given); threshold 0.05, below shown as 0
The entries below are paired with their reported DF norm AVERAGE OR10a.
quantity: DF norm AVERAGE OR10a

molecule: CCCCOC(=O)CC [butyl propanoate]
assayed system: Drosophila OR10a (Drosophila melanogaster)
recorded value: 0

molecule: CC(=O)c1ccccc1
assayed system: Drosophila OR10a (Drosophila melanogaster)
recorded value: 0.2367

molecule: CCCCCCCCCC=O
assayed system: Drosophila OR10a (Drosophila melanogaster)
recorded value: 0

molecule: CC1=CC[C@@H](C(C)(C)O)CC1
assayed system: Drosophila OR10a (Drosophila melanogaster)
recorded value: 0

molecule: C=C1CCC2CC1C2(C)C (stereo not shown)
assayed system: Drosophila OR10a (Drosophila melanogaster)
recorded value: 0.0885

molecule: C=CCc1ccc(O)c(OC)c1
assayed system: Drosophila OR10a (Drosophila melanogaster)
recorded value: 0

molecule: Cc1ccccc1C
assayed system: Drosophila OR10a (Drosophila melanogaster)
recorded value: 0

molecule: CCCC(=O)OCC [ethyl butyrate]
assayed system: Drosophila OR10a (Drosophila melanogaster)
recorded value: 0

molecule: Cc1cccc(C)c1
assayed system: Drosophila OR10a (Drosophila melanogaster)
recorded value: 0

molecule: CCCCCC(=O)OCC [ethyl hexanoate]
assayed system: Drosophila OR10a (Drosophila melanogaster)
recorded value: 0.08508

molecule: CCc1ccccc1
assayed system: Drosophila OR10a (Drosophila melanogaster)
recorded value: 0.05742

molecule: CC/C=C/CCO
assayed system: Drosophila OR10a (Drosophila melanogaster)
recorded value: 0.07404

molecule: CCCCCOC(C)=O [pentyl acetate]
assayed system: Drosophila OR10a (Drosophila melanogaster)
recorded value: 0.3011

molecule: CC(C)=CCC/C(C)=C/CC/C(C)=C/CO
assayed system: Drosophila OR10a (Drosophila melanogaster)
recorded value: 0

molecule: OCCc1ccccc1
assayed system: Drosophila OR10a (Drosophila melanogaster)
recorded value: 0

molecule: C=C(C)[C@H]1CC=C(C)CC1
assayed system: Drosophila OR10a (Drosophila melanogaster)
recorded value: 0.05729

molecule: C=C1CCC2(C(C)C)CC12 (stereo not shown)
assayed system: Drosophila OR10a (Drosophila melanogaster)
recorded value: 0

molecule: CCCOC(C)=O [propyl acetate]
assayed system: Drosophila OR10a (Drosophila melanogaster)
recorded value: 0

molecule: CCCCCCCCC=O
assayed system: Drosophila OR10a (Drosophila melanogaster)
recorded value: 0

molecule: Cc1ccc(C(C)C)cc1
assayed system: Drosophila OR10a (Drosophila melanogaster)
recorded value: 0

molecule: CCCCOC(C)=O [butyl acetate]
assayed system: Drosophila OR10a (Drosophila melanogaster)
recorded value: 0

molecule: CCOC(=O)c1ccccc1 [ethyl benzoate]
assayed system: Drosophila OR10a (Drosophila melanogaster)
recorded value: 0.4934

molecule: Cc1ccc(C)cc1
assayed system: Drosophila OR10a (Drosophila melanogaster)
recorded value: 0.06412

molecule: CC(=O)OCCC(C)C [isopentyl acetate]
assayed system: Drosophila OR10a (Drosophila melanogaster)
recorded value: 0.101

molecule: O=Cc1ccccc1
assayed system: Drosophila OR10a (Drosophila melanogaster)
recorded value: 0.1697

molecule: CC1=CCC2CC1C2(C)C (stereo not shown)
assayed system: Drosophila OR10a (Drosophila melanogaster)
recorded value: 0.07438

molecule: CCOC(=O)CC [ethyl propionate]
assayed system: Drosophila OR10a (Drosophila melanogaster)
recorded value: 0

molecule: COC(=O)c1ccccc1O [methyl salicylate]
assayed system: Drosophila OR10a (Drosophila melanogaster)
recorded value: 0.9525

molecule: CC(=O)OCC(C)C [isobutyl acetate]
assayed system: Drosophila OR10a (Drosophila melanogaster)
recorded value: 0.1821

molecule: C=CC(C)(O)CCC=C(C)C (stereo not shown)
assayed system: Drosophila OR10a (Drosophila melanogaster)
recorded value: 0

molecule: COC(=O)c1ccccc1 [methyl benzoate]
assayed system: Drosophila OR10a (Drosophila melanogaster)
recorded value: 0.6719
